- System: Escherichia coli
- protocolDescription: Antibacterial activity against Escherichia coli after 18 to 24 hrs by broth microdilution method
- Format: functional
Consider the following compounds; for each one, report its MIC.
Entry rule: numbers only, all in µg/mL.

// lookup MIC for Cc1nn(-c2ccccc2)c2c1C(c1cccc(Oc3ccccc3)c1)C(C#N)=C(N)O2 (stereo not drawn)
6.25

So what does the record say about MIC for Cc1nn(-c2ccccc2)c2c1C1(C(=O)Nc3ccccc31)C(C#N)=C(N)O2 (stereo not drawn) ?
3.12

Entry CC1=NN=C2OC(N)=C(C#N)C(c3ccc(Oc4nc(Cl)c(Cl)cc4Cl)cc3)C12 (stereo not drawn) : reported MIC = ?
1.56

For Cc1nn(-c2ccccc2)c2c1C(c1ccc(O)cc1)C(C#N)=C(N)O2 (stereo not drawn) , what is its reported MIC?
12.5

# query: MIC of entry Cc1nn(-c2ccccc2)c2c1C(c1cccc(Oc3nc(Cl)c(Cl)cc3Cl)c1)C(C#N)=C(N)O2 (stereo not drawn)
12.5

# get_value(readout='MIC', item= Cc1[nH]nc2c1C(c1cccc(Oc3nc(Cl)c(Cl)cc3Cl)c1)C(C#N)=C(N)O2 (stereo not drawn) )
3.12

So what's the measured MIC for this one? Cc1n[nH]c2c1C(c1cccs1)C(C#N)=C(N)O2 (stereo not drawn)
3.12

Consider the compound Cc1[nH]nc2c1C(c1c(F)c(F)c(F)c(F)c1F)C(C#N)=C(N)O2 (stereo not drawn) and give its measured MIC.
1.56

---

- System: MCF7
- protocolDescription: Cytotoxicity against estrogen receptor-positive human MCF7 cells assessed as inhibition of cell proliferation at 50 ug/ml after 24 hrs by MTT assay
- Format: functional
- recordedConditions: MCF7, 24 h
Quick rule: inhibition at 50 µg/mL of at least 90% means Fulfilled, below that means Not fulfilled.

Test whether the molecule Cc1[nH]nc2c1C1(C(=O)Nc3ccccc31)C(C#N)=C(N)O2 (stereo not given) records inhibition at 50 µg/mL of 90% or higher.
Not fulfilled

Reported inhibition at 50 µg/mL at or above 90%? Cc1[nH]nc2c1C(c1ccc(C3C(C#N)=C(N)Oc4n[nH]c(C)c43)cc1)C(C#N)=C(N)O2 (stereo not given)
Not fulfilled

Reported inhibition at 50 µg/mL at or above 90%? Cc1nn(-c2ccccc2)c2c1C(c1ccc([N+](=O)[O-])cc1)C(C#N)=C(N)O2 (stereo not given)
Fulfilled

Test whether the molecule Cc1[nH]nc2c1C(c1c(F)c(F)c(F)c(F)c1F)C(C#N)=C(N)O2 (stereo not given) records inhibition at 50 µg/mL of 90% or higher.
Not fulfilled

Check the entry Cc1nn(-c2ccccc2)c2c1C1(C(=O)Nc3ccccc31)C(C#N)=C(N)O2 (stereo not given) : does inhibition at 50 µg/mL equal or exceed 90%?
Not fulfilled

---

For each entry below, report its Activity value.
- Tested on: Rattus norvegicus
- protocolDescription: Antiinflammatory activity in Wistar rat assessed as protection against carrageenan-induced paw edema at 100 mg/kg, po administered 1 hr before carrageenan challenge measured after 2 hrs
- Assay type: functional
Give a bare numeral; the unit % is implied.

What does the data say about its Activity? Entry: `Cc1nn(-c2ccccc2)c2c1C1(C(C#N)=C(N)O2)c2ccccc2-c2ccccc21`
45.2

Name the reported Activity value associated with the molecule Cc1[nH]nc2c1C(c1cccc(Oc3ccccc3)c1)C(C#N)=C(N)O2 (stereo not given)
47.9

What value of Activity has been recorded for this entry: Cc1nn(-c2ccccc2)c2c1C(c1ccc(O)cc1)C(C#N)=C(N)O2 (stereo not given)
43.8

Param item = COc1ccc(C2C(C#N)=C(N)Oc3c2c(C)nn3-c2ccccc2)cc1 (stereo not given) ; retrieve measured Activity.
39.7

Request the reported Activity associated with Cc1[nH]nc2c1C(c1cccc(Oc3nc(Cl)c(Cl)cc3Cl)c1)C(C#N)=C(N)O2 (stereo not given)
64.3

---

Exercise: for every item that follows, state its recorded inhibition at 50 µg/mL.
- Tested on: MCF7
- protocolDescription: Cytotoxicity against estrogen receptor-positive human MCF7 cells assessed as inhibition of cell proliferation at 50 ug/ml after 24 hrs by MTT assay
- Assay type: functional
- recordedConditions: MCF7, 24 h
# output: bare number, implied unit %

Which inhibition at 50 µg/mL value is on record for COc1ccc(C2C(C#N)=C(N)Oc3c2c(C)nn3-c2ccccc2)cc1 (stereo not given) ?
30

Which inhibition at 50 µg/mL is reported for this compound? Cc1nn(-c2ccccc2)c2c1C(c1ccccc1)C(C#N)=C(N)O2 (stereo not given)
84.1

# query: inhibition at 50 µg/mL of entry Cc1[nH]nc2c1C(c1cccc(Oc3nc(Cl)c(Cl)cc3Cl)c1)C(C#N)=C(N)O2 (stereo not given)
50.1

Fill in the blank: the reported inhibition at 50 µg/mL of Cc1nn(-c2ccccc2)c2c1C(c1ccc(O)cc1)C(C#N)=C(N)O2 (stereo not given) is ____.
50.2

Any idea what its inhibition at 50 µg/mL is? The compound is Cc1[nH]nc2c1C(c1cccnc1)C(C#N)=C(N)O2 (stereo not given)
75

---

- System: Rattus norvegicus
- protocolDescription: Antiinflammatory activity in Wistar rat assessed as protection against carrageenan-induced paw edema at 100 mg/kg, po administered 1 hr before carrageenan challenge measured after 2 hrs
- Format: functional
Can you tell me Activity for the items I'm about to list?
The answer is to be given in %; state only the numeric part.

Fill in: Activity of Cc1nn(-c2ccccc2)c2c1C1(C(=O)Nc3ccccc31)C(C#N)=C(N)O2 (stereo unspecified) is ___
46.5

Find the recorded Activity belonging to CC(C)Cc1ccc(C(C)C(=O)O)cc1 (stereo unspecified) and report it.
52.7

Quick check: Activity of Cc1nn(-c2ccccc2)c2c1C(c1ccccc1)C(C#N)=C(N)O2 (stereo unspecified) ?
42.4

Item Cc1n[nH]c2c1C(c1cccs1)C(C#N)=C(N)O2 (stereo unspecified) has what recorded Activity?
50.8

Report Activity for CC1=NN=C2OC(N)=C(C#N)C(c3ccc(Oc4nc(Cl)c(Cl)cc4Cl)cc3)C12 (stereo unspecified) please.
67.1

Reported Activity for Cc1[nH]nc2c1C1(C(=O)Nc3ccccc31)C(C#N)=C(N)O2 (stereo unspecified) : what is it?
54.7

---

- Tested on: Escherichia coli
- protocolDescription: Antibacterial activity against Escherichia coli at […] after 24 hrs by agar diffusion method
- Type: functional
observedProperty: inhibition zone (IZ) (mm)
Quick note: give the figure in mm, leave out the unit.

Sample `Cc1nn(-c2ccccc2)c2c1C1(C(C#N)=C(N)O2)c2ccccc2-c2ccccc21` — what was its inhibition zone (IZ)?
13

Looking for the measured inhibition zone (IZ) of Cc1nn(-c2ccccc2)c2c1C(c1ccc(O)cc1)C(C#N)=C(N)O2 (stereo unspecified) , can you help?
16

# lookup: inhibition zone (IZ) of Cc1[nH]nc2c1C(c1cccc(Oc3ccccc3)c1)C(C#N)=C(N)O2 (stereo unspecified)
9

Name the recorded inhibition zone (IZ) for `Cc1[nH]nc2c1C1(C(C#N)=C(N)O2)c2ccccc2-c2ccccc21` .
10

What does the record list as inhibition zone (IZ) for Cc1nn(-c2ccccc2)c2c1C(c1cccc(Oc3ccccc3)c1)C(C#N)=C(N)O2 (stereo unspecified) ?
18

Recorded inhibition zone (IZ) for Cc1[nH]nc2c1C(c1ccc(O)cc1)C(C#N)=C(N)O2 (stereo unspecified) , please?
15

Bench note: what inhibition zone (IZ) did Cc1[nH]nc2c1C1(C(=O)Nc3ccccc31)C(C#N)=C(N)O2 (stereo unspecified) show?
12

// inhibition zone (IZ) lookup, key: Cc1nn(-c2ccccc2)c2c1C(c1ccc([N+](=O)[O-])cc1)C(C#N)=C(N)O2 (stereo unspecified)
15

Item COc1ccc(C2C(C#N)=C(N)Oc3c2c(C)nn3-c2ccccc2)cc1 (stereo unspecified) has what recorded inhibition zone (IZ)?
10

Can you share its inhibition zone (IZ)? I mean this molecule: Cc1nn(-c2ccccc2)c2c1C(c1cccc(Oc3nc(Cl)c(Cl)cc3Cl)c1)C(C#N)=C(N)O2 (stereo unspecified)
14

Form field: reported inhibition zone (IZ) of Cc1nn(-c2ccccc2)c2c1C(c1ccccc1)C(C#N)=C(N)O2 (stereo unspecified)
14

Give its inhibition zone (IZ) value. Item: Cc1n[nH]c2c1C(c1cccs1)C(C#N)=C(N)O2 (stereo unspecified)
20

Can you share its inhibition zone (IZ)? I mean this molecule: Cc1nn(-c2ccccc2)c2c1C1(C(=O)Nc3ccccc31)C(C#N)=C(N)O2 (stereo unspecified)
21

Requested read-out: inhibition zone (IZ). Entry: CC1=NN=C2OC(N)=C(C#N)C(c3ccc(Oc4nc(Cl)c(Cl)cc4Cl)cc3)C12 (stereo unspecified)
22

Fill in: inhibition zone (IZ) of Cc1[nH]nc2c1C(c1c(F)c(F)c(F)c(F)c1F)C(C#N)=C(N)O2 (stereo unspecified) is ___
14

GET /values?readout=inhibition zone (IZ)&item= Cc1[nH]nc2c1C(c1cccc(Oc3nc(Cl)c(Cl)cc3Cl)c1)C(C#N)=C(N)O2 (stereo unspecified)
23

These entries and their values trace back to ChEMBL document CHEMBL2062449.
